# System: Ca-Ski
# METHOD SUMMARY: Antiproliferative activity against HPV-positive human Ca-Ski cells assessed as inhibition of cell growth incubated for 48 hrs by WST-1 assay
# Assay type: functional, cell-based
pEC50: −log10 of the molar value.
METRIC: pEC50

{"columns": ["COMPOUND", "METRIC", "NUMBER"],
 "data": [
  ["COc1cc(C)c(O)c2c1C=CC(C)(CC/C=C(\\C)CCCC(C)(C)OC(C)=O)O2 (stereo not given)", "pEC50", 4.70],
  ["CC(=O)Oc1cc(C)c(O)c2c1C=CC(C)(CC/C=C(\\C)CCC=C(C)C)O2 (stereo not given)", "pEC50", 4.60],
  ["CC(C)=CCC/C(C)=C/CCC1(C)C=Cc2c(C=O)c(O)c(C)c(O)c2O1 (stereo not given)", "pEC50", 4.34],
  ["CC(C)=CCC/C(C)=C/CC/C(C)=C/Cc1c(O)c(O)c(C)c(O)c1C=O", "pEC50", 4.64],
  ["COc1cc(C)c(O)c2c1C=CC(C)(CC/C=C(\\C)CCCC(C)(C)O)O2 (stereo not given)", "pEC50", 4.39]
]}
